target: ABHD6 (Mus musculus (Mouse)); experiment: In vitro competitive activity-based protein profiling (mouse brain membrane fraction or cell lysates), ABHD6 band; assay type: biochemical; conditions: 1 μM, mouse proteome; read-out: ABHD6 % Inh 1 μM (mouse)
Sequence (Q8R2Y0 whole entry): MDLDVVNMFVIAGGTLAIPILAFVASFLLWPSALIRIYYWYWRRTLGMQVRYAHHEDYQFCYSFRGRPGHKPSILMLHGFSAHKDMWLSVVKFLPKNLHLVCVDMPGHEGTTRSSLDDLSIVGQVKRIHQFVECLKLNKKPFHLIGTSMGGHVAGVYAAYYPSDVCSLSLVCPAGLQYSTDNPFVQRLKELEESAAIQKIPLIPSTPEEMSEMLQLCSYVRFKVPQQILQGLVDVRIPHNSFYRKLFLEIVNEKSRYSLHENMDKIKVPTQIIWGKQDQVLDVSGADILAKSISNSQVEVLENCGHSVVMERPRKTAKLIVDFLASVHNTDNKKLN
Test Readout: inhibition at 1 µM

O=C(O)[C@@H]1CCCCN1c1cc(CN2CCCC23CCN(C(=O)OC(C(F)(F)F)C(F)(F)F)CC3)cc(C(F)(F)F)c1	< 25%
O=C(OC(C(F)(F)F)C(F)(F)F)N1CCC2(CCCN2Cc2ccc(C(F)(F)F)cc2N2CCC2)CC1	< 25%
O=C(O)C1CCN(c2cc(CN3CCCC34CCN(C(=O)OC(C(F)(F)F)C(F)(F)F)CC4)cc(C(F)(F)F)c2)C1 (stereo not drawn)	< 25%
O=C(OC(C(F)(F)F)C(F)(F)F)N1CCC2(CCN(Cc3c(N4CCCC4)cccc3C(F)(F)F)C2)CC1	< 25%
O=C(OC(C(F)(F)F)C(F)(F)F)N1CCC2(CCCN2Cc2cccc(OCCN3CCCCC3)c2)CC1	< 25%

// CC1(C(=O)O)CCN(c2cc(C(F)(F)F)ccc2CN2CCC3(CCN(C(=O)OC(C(F)(F)F)C(F)(F)F)CC3)C2)C1 (stereo not drawn) : inhibition at 1 µM value = ≥ 75%

// O=C(O)C1CCN(c2cc(C(F)(F)F)ccc2CN2CCC3(CCN(C(=O)OC(C(F)(F)F)C(F)(F)F)CC3)C2)C1 (stereo not drawn) : inhibition at 1 µM value = ≥ 75%

// "CC(=O)N1CCc2cccc(CN3CCCC34CCN(C(=O)OC(C(F)(F)F)C(F)(F)F)CC4)c2C1" : inhibition at 1 µM value = < 25%

// "O=C(OC(C(F)(F)F)C(F)(F)F)N1CCC2(CCCN2Cc2ccc(F)c(OCCF)c2)CC1" : inhibition at 1 µM value = ≥ 75%
